# Lookup of reported composite z-score keyed by entry
Assay: binders of probe aFST on microarray, primary screen, stem cell growth factor project, biochemical, small-molecule microarray, fluorescence 635/667 (AID 1086);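 note: score merges 667 nm fluorescence with signal-to-noise of each printed compound spot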
Conditions: higher = more signal
Answer with a bare number; do not write a unit.

Worked cases, answers included:
CCCCC(=C=CC[C@H](O)c1cccc(OCCO)c1)C[C@H](O)c1cc(Cl)cc(Cl)c1O: 0.137
C=CCN1C(=O)[C@@]2(O[C@@H](CCO)[C@H]([Si](C)(C)c3ccc(OC)cc3)[C@H]2C)c2cc(N3CCCCC3=O)ccc21: 0.2
COC(=O)c1ccc(OC)c(/C=C\CC(OC(=O)c2ccncc2)c2ccccc2)c1 (configuration not stated): 0.0754
O=C(O)C1=CC[C@H]2C(=O)N(c3ccccc3)C(=O)[C@@H]12: 0.914

**Q:** Item CCCC=C(CCC)[C@@H](NC(=O)c1ccc(C(=O)OC)cc1)c1ccc(C(=O)OC)cc1 has what recorded composite z-score?
**A:** 0.484

**Q:** Try COc1ccc([Si](C)(C)[C@@H]2[C@@H](CC(=O)N3Cc4ccccc4C[C@H]3CO)O[C@]3(C(=O)N(Cc4ccc(I)cc4)c4ccccc43)[C@H]2C)cc1 next.
**A:** 0.259

**Q:** Entry COCCOC(=O)N1C(=O)[C@@]2(c3cc(C#CCNC(N)=O)ccc31)[C@H](C(N)=O)[C@H]1C(=O)O[C@H](c3ccccc3)[C@H](c3ccccc3)N1[C@@H]2c1ccc(O)cc1 please
**A:** 0.0377
